System: ATP;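 further: ATP exposure 15 min at 22 °C before imaging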
Assay: switch fluorescence ratio, 500 uM ATP over buffer (Cy3 cluster intensity, sum of 5 cycles each) (fold (ratio)); higher = stronger signal-on switching upon ATP binding; sequences stand for … in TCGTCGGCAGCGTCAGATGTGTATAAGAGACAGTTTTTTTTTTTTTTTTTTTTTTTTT…TC
Details: aptamer strand: ATP DNA aptamer (quencher-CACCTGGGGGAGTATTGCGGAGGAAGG + anchor), 100 nM annealed; ATP concentration: 500 uM
# label = Satisfied if switch fluorescence ratio >= 1 else Not satisfied

sequence chain: GCACGCGAAG
category: Satisfied
--
sequence chain: TTTTGGGTG
category: Satisfied
--
sequence chain: GTTTTTACGT
category: Satisfied

Q: Decide: switch fluorescence ratio of "TCGGCATGGG" >= 1?
Result: Satisfied

Q: Decide: switch fluorescence ratio of "TTGCAGTAGC" >= 1?
Result: Satisfied

Q: Decide: switch fluorescence ratio of "TGGTTATGGC" >= 1?
Result: Not satisfied
